System: SW-620
Assay: NCI tumour cell line growth inhibition, 48 h
Active and inactive are the calls of the source. Cut-off read from the data, not from the text of the source: active = GI50 up to about 1.1 µM and inactive = higher.
Recorded GI50 values for a group of compounds are listed next.

| compound | GI50 |
| --- | --- |
| NCCN1CC2CCC(CC2)C1 | > 10 µM (inactive) |
| Clc1nc2c(-c3cccs3)ncnc2n1Cc1ccccc1 | > 30.3 µM (inactive) |
| Cc1cn2cc(-c3cccs3)nc2s1 | > 100 µM (inactive) |
| C=CCC1OC(C)(C)Oc2ccc(OCOCCOC)cc21 (stereo not given) | > 100 µM (inactive) |
| CC1(C)CC[C@]2(C(=O)O)[C@H](O)C[C@]3(C)C(=CC[C@@H]4[C@@]5(C)CC[C@H](OC6OC(C(=O)O)C(O)C(O)C6O)C(C)(C)[C@@H]5CC[C@]43C)[C@@H]2C1 (stereo not given in full) | > 100 µM (inactive) |
| CSc1cc(Br)ccc1-n1c(C(=O)c2ccccc2)c(SC)n(-c2ccccc2)c1=O | 19 µM (inactive) |
| O=C1NC(=S)NC(=O)C1=C(O)Nc1ccccc1 | 29.2 µM (inactive) |
| C1=C(c2ccccc2)O[C@H](COCc2ccccc2)C(OCc2ccccc2)[C@@H]1OCc1ccccc1 (stereo not given in full) | > 10 µM (inactive) |
| OC1c2ccccc2C2C(O)c3ccccc3C12 (stereo not given) | > 100 µM (inactive) |
| CC1=C(C(=O)Nc2c(C)cccc2C)C(c2ccccc2Cl)C(C(=O)Nc2c(C)cccc2C)=C(C)N1 | > 100 µM (inactive) |
| C=C(C)C1CC/C(C)=C/CC[C@]2(C)O[C@H]2CC/C(COC(C)=O)=C\[C@@H]1O (stereo not given in full) | > 50 µM (inactive) |
| Cc1ccc(O)cc1.Cc1cccc(O)c1.Cc1ccccc1O [CRESOL] | > 100 µM (inactive) |
| C/C(=N\NS(=O)(=O)c1ccc(C)cc1)c1ccccn1 | > 100 µM (inactive) |
| CC(=O)Nc1ccc(C2CC(c3ccc([N+](=O)[O-])cc3)=Nc3ccccc3S2)cc1 (stereo not given) | 16.8 µM (inactive) |
| S=C1NC(c2ccccc2)NC(c2ccccc2)S1 (stereo not given) | > 100 µM (inactive) |

====

System: 786-0
Test: NCI tumour cell line growth inhibition, 48 h
The source made the active and inactive calls. Cut-off read from the data, not from the text of the source: active = GI50 up to about 1.1 µM and inactive = higher.
Possible outcomes: label 1 for active, label 0 for inactive

| compound | studyTarget | className |
| --- | --- | --- |
| CN(C)CCCn1c2c3ccccc3ccc2c2oc(=O)c3ccccc3c21 | 786-0 | label 0 |
| CCC(NC1=NCCO1)c1cccs1 (stereo not drawn) | 786-0 | label 0 |
| ClC(Cl)(Cl)C1CCOC1n1nnc2ccccc21 (stereo not drawn) | 786-0 | label 0 |
| Cc1cccc2c1C(=O)/C(=C/c1ccccc1C(=O)O)C2 | 786-0 | label 0 |
| COc1ccc(C[C@@H]2OC3(C=CC(=O)C=C3)O[C@H]2Cc2ccc(OC)cc2)cc1 | 786-0 | label 1 |
| Cc1csc(N/C=C2\C(=O)Oc3ccccc3C2=O)n1 | 786-0 | label 0 |
| N=c1[nH]cnc2c1nnn2C1C=CC(COS(N)(=O)=O)C1 (stereo not drawn) | 786-0 | label 0 |
| COC(=O)/C=C/[C@@H]1[C@H](C)N1S(=O)(=O)c1ccc(C)cc1 (stereo partly drawn) | 786-0 | label 0 |
| Nc1nc(Cl)cc(NCC2(CO)CC(=O)C2)n1 | 786-0 | label 0 |
| CC1=C(C)C(=O)O[C@@H]([C@](C)(O)[C@]2(O)CC[C@@]3(O)[C@@H]4C[C@H](O)[C@]5(O)[C@@H](O)C=CC(=O)[C@]5(C)[C@H]4CC[C@]23C)C1 | 786-0 | label 0 |
| C(=N\CC/N=C/c1cccc2ccccc12)/c1cccc2ccccc12 | 786-0 | label 0 |
| CCOC(=O)C1=C(N)N2C(=N[C@H]3CCCC[C@@H]32)N=C1 | 786-0 | label 0 |
| CCCOc1ccc(-c2nc(-c3ccc(/N=C/c4ccc(N(CCOS(C)(=O)=O)CCOS(C)(=O)=O)cc4C)cc3)cs2)cc1 | 786-0 | label 0 |
| O=C1NC(=S)NC(=O)C1=C(O)Nc1ccccc1 | 786-0 | label 0 |
| CCCCNC(=O)C1C(=O)N(CCCC)C(=O)/C1=N\N (stereo not drawn) | 786-0 | label 0 |
| O=C(O)CS | 786-0 | label 0 |
| CC(O)CN1c2ccccc2Sc2ccccc21 (stereo not drawn) | 786-0 | label 0 |
| CC(=O)OCC1=C2C(OC(=O)C(C)C)CC3(COC(C)=O)OC3/C=C\C3(C)OC3C2OC1=O (stereo not drawn) | 786-0 | label 0 |

====

Tested on: HL-60
Experiment: NCI tumour cell line growth inhibition, 48 h
Active and inactive are the calls of the source. Cut-off read from the data, not from the text of the source: active = GI50 up to about 1.1 µM and inactive = higher.
Possible outcomes: 1 (active), 0 (inactive)

| molecule | className |
| --- | --- |
| Nc1ccc2c(c1)NCCN2 | 0 |
| Cc1ccc(O)cc1.Cc1cccc(O)c1.Cc1ccccc1O | 0 |
| Nc1nc(Cl)c2ncn(Cc3cccc(CCl)c3)c2n1 | 0 |
| Clc1nc2c(-c3cccs3)ncnc2n1Cc1ccccc1 | 0 |
| CC1=NN(c2cccc(S(=O)(=O)O)c2)C2(C1)SCC(=O)N2c1nc2ccccc2s1 (stereo unspecified) | 0 |
| O=C1CCc2c3c(c4c([nH]c5ccccc54)c2CC1)C(=O)NC3=O | 1 |
| c1ccc(Sc2nc(Sc3ccccc3)nc(Sc3ccccc3)n2)cc1 | 0 |
| COc1cc2c(cc1C)NC(=O)/C2=C\c1cccnc1 | 0 |
| OCC(O)C(O)C(O)C1SC(c2ccccc2)=NN1c1ccccc1 (stereo unspecified) | 0 |
| CCC1(N=[N+]=[N-])C(=O)c2ccccc2N(c2ccccc2)C1=O (stereo unspecified) | 0 |
| N#CSC/C(Cl)=C/Cl.N#CSC/C(Cl)=C\Cl | 0 |

====

Tested on: SK-MEL-2
Assay: NCI tumour cell line growth inhibition, 48 h
Calls of active or inactive are those of the source. Rule as the data show it: active = GI50 up to about 1.1 µM and inactive = higher.

| molecule | GI50 |
| --- | --- |
| CC(=O)C1=CCC2c3[nH]c4ccccc4c3CCN2C1 (stereo not given) | 66.4 µM (inactive) |
| Cc1ccc(-c2c(N)nc(NC#N)nc2CCC(=O)Nc2ccccc2[N+](=O)[O-])cc1 | > 100 µM (inactive) |
| CCOC(=O)C1(C#N)CC1 | > 100 µM (inactive) |
| COc1cc2c3cc1Oc1c(O)c(OC)cc4c1[C@H](Cc1ccc(cc1)Oc1cc(ccc1O)C[C@H]3N(C)CC2)N(C)CC4 | 12.3 µM (inactive) |
| O=C(CC(C(=O)c1ccc(F)cc1)c1ccsc1)c1cccs1 (stereo not given) | > 100 µM (inactive) |

====

Test system: UACC-257
Experiment: NCI tumour cell line growth inhibition, 48 h
Calls of active or inactive are those of the source. No stated cut-off is given here; in the data, active = GI50 up to about 1.1 µM and inactive = higher.
Possible outcomes: 1 for active, 0 for inactive

| compound | studyTarget | className |
| --- | --- | --- |
| CC(C)(C)OCC1NC(=O)[C@@H]2Cc3c([nH]c4ccccc34)C(c3ccccc3)N2C1=O (some centres undefined) | UACC-257 | 0 |
| O=C1C2C3C=C4c5ccccc5N(c5ccccc5)C4(C2C(=O)N1c1ccc([N+](=O)[O-])cc1)[C@H]1C(=O)N(c2ccc([N+](=O)[O-])cc2)C(=O)[C@@H]31 (some centres undefined) | UACC-257 | 0 |
| O=C1CCc2c3c(c4c([nH]c5ccccc54)c2CC1)C(=O)NC3=O | UACC-257 | 0 |
| CCOC(CN(C)C(=O)OCC(Cl)(Cl)Cl)OCC | UACC-257 | 0 |
| COc1cc2c(cc1OCCCOc1cc3c(cc1OC)C(=O)N1CCC[C@H]1C(=O)N3)N=C[C@@H]1CCCN1C2=O | UACC-257 | 0 |
| CC12CCCCC1=C(F)C(F)(F)S2 (centres undefined) | UACC-257 | 0 |
| Nc1nc(=O)n(C2OC(CO)C(O)C2O)cc1F (centres undefined) | UACC-257 | 0 |
| CC(=O)Nc1ccccc1C=C1c2ccccc2-c2ccccc21 | UACC-257 | 0 |
| CN(C)CCC(=O)N1C/C(=C\c2ccc(Cl)c(Cl)c2)C(=O)/C(=C/c2ccc(Cl)c(Cl)c2)C1 | UACC-257 | 1 |

====

Tested on: M14
Assay: NCI tumour cell line growth inhibition, 48 h
Activity calls are given as the source filed them. No stated cut-off is given here; in the data, active = GI50 up to about 1.1 µM and inactive = higher.

| molecule | GI50 |
| --- | --- |
| CCCCCCCCC(C)CCCCCCCCC(=O)OCC(COP(=O)([O-])OCC[N+](C)(C)C)OC(=O)CCCCCCCCC(C)CCCCCCCC (stereo not given) | > 100 µM (inactive) |
| O=C1CCc2c3c(c4c([nH]c5ccccc54)c2CC1)C(=O)NC3=O | 5.05 µM (inactive) |
| O=C(c1cccc2cc(O)ccc12)c1cn(CCN2CCOCC2)c2ccccc12 | 20 µM (inactive) |
| COc1ccc2c(c1)/c(=C/C#N)c1c3ccccc3[n+](C)n21 | 6.87 µM (inactive) |
| N=c1[nH]cnc2c1nnn2C1C=CC(COS(N)(=O)=O)C1 (stereo not given) | 7 µM (inactive) |
